Property: pIC50; scope: individual compounds
target-or-system: TrkA kinase (Homo sapiens, UniProt P04629)
Sequence (P04629 33-796): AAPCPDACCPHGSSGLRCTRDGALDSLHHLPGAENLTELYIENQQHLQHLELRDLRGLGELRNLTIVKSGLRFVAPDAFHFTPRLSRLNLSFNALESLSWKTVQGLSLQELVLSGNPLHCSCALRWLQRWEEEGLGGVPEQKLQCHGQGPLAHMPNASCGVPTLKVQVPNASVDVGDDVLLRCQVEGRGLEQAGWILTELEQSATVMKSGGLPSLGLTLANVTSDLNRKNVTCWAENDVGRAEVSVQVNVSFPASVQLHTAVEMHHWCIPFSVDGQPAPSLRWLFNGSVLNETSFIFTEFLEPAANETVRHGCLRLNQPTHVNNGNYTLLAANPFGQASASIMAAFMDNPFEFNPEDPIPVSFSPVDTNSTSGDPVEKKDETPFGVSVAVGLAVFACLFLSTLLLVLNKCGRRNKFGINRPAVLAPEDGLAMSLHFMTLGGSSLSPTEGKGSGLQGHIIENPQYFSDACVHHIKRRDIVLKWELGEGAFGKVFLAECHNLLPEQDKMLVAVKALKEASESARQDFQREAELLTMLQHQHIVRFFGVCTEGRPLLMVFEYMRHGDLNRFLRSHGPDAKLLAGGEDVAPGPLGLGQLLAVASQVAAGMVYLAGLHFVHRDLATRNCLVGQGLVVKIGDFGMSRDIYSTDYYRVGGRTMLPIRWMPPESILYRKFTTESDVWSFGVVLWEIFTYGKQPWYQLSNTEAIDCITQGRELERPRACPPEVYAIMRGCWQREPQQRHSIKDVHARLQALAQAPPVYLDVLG
measurement-description: TrkA kinase assay (mobility shift assay)
Type: biochemical
experimental-parameters: class symbols; read-out: Trk A Kinase IC50
pIC50: −log10 of the molar value.
property-name: pIC50

- N#Cc1ccc2[nH]c(-c3cnn4ccc(N5CCC[C@@H]5c5cc(F)ccc5F)nc34)cc2c1: 7.30 to 8.00
- OCc1cc2nc(-c3cnn4ccc(N5CCC[C@@H]5c5cc(F)ccc5F)nc34)[nH]c2cn1: ≥ 8.00
- COc1cc2[nH]c(-c3cnn4ccc(N5CCC[C@H]5c5cc(F)ccc5F)nc34)nc2cc1C#N: 7.30 to 8.00
- COc1cnc(OC)n2nc(-c3cnn4ccc(N5CCC[C@@H]5c5cc(F)ccc5F)nc34)nc12: 7.30 to 8.00
- Fc1ccc(F)c([C@H]2CCCN2c2ccn3ncc(-c4nnc5n4CCOC5)c3n2)c1: 7.30 to 8.00
- N#Cc1cc2nc(-c3cnn4ccc(N5CCC[C@@H]5c5cc(F)ccc5F)nc34)[nH]c2cc1N1CCC[C@H]1C#N: ≥ 8.00
- COc1cc2oc(-c3cnn4ccc(N5CCC[C@@H]5c5cc(F)ccc5F)nc34)nc2cc1C#N: ≥ 8.00
- N#CCOc1cc2nc(-c3cnn4ccc(N5CCC[C@@H]5c5cc(F)ccc5F)nc34)[nH]c2cc1OCC#N: ≥ 8.00
- Fc1ccc(F)c([C@H]2CCCN2c2ccn3ncc(-c4nc5ncc(Br)nc5[nH]4)c3n2)c1: ≥ 8.00
- CCC(O)(c1nnc(-c2cnn3ccc(N4CCC[C@@H]4c4cc(F)ccc4F)nc23)[nH]1)C(F)(F)F (stereo partly drawn): < 7.30
- N#Cc1cc2[nH]c(-c3cnn4ccc(N5CCC[C@@H]5c5cc(F)ccc5F)nc34)nc2cc1F: ≥ 8.00
- Fc1ccc(F)c([C@H]2CCCN2c2ccn3ncc(-c4nc5c(s4)COCC5)c3n2)c1: 7.30 to 8.00
- Fc1ccc(F)c([C@H]2CCCN2c2ccn3ncc(-c4nc5cnccc5s4)c3n2)c1: ≥ 8.00
- CN1CCN(c2cc3[nH]c(-c4cnn5ccc(N6CCC[C@@H]6c6cc(F)ccc6F)nc45)nc3cc2C#N)CC1: ≥ 8.00
- COC(=O)c1cc2oc(-c3cnn4ccc(N5CCC[C@@H]5c5cc(F)ccc5F)nc34)nc2cc1OC: ≥ 8.00

----------
target-or-system: TrkA kinase (Homo sapiens, UniProt P04629)
measurement-description: TrkA kinase assay (mobility shift assay)
Format: biochemical
experimental-parameters: numeric values; read-out: Trk A Kinase IC50
Property: IC50; scope: individual molecules
property-name: IC50 (nM)

- COc1cc2[nH]c(-c3cnn4ccc(N5CCC[C@@H]5c5cc(F)ccc5F)nc34)nc2cc1C(=O)N(C)C: 0.9
- OC(c1nnc(-c2cnn3ccc(N4CCC[C@@H]4c4cc(F)ccc4F)nc23)[nH]1)C(F)(F)F (stereo partly drawn): 3.23
- C[C@@](O)(c1nnc(-c2cnn3ccc(N4CCC[C@@H]4c4cc(F)ccc4F)nc23)[nH]1)C(F)(F)F: 2.6
- O=C(O)c1cc2[nH]c(-c3cnn4ccc(N5CCC[C@@H]5c5cc(F)ccc5F)nc34)nc2c(F)c1F: 0.48
- Fc1ccc(F)c([C@H]2CCCN2c2ccn3ncc(-c4nc5ncc(Cl)c(Cl)c5[nH]4)c3n2)c1: 7
- COc1cc2[nH]c(-c3cnn4ccc(N5CCC[C@@H]5c5cc(F)ccc5F)nc34)nc2cc1Cl: 3.2
- OCC12CC(c3nnc(-c4cnn5ccc(N6CCC[C@@H]6c6cc(F)ccc6F)nc45)[nH]3)(C1)C2: 2.51
- CN(C)c1cc2[nH]c(-c3cnn4ccc(N5CCC[C@@H]5c5cc(F)ccc5F)nc34)nc2cc1C#N: 1.1
- Fc1ccc(F)c([C@H]2CCCN2c2ccn3ncc(-c4nc5ccc(C(F)(F)F)nc5[nH]4)c3n2)c1: 3.8
- Fc1ccc(F)c([C@H]2CCCN2c2ccn3ncc(-c4nc5cnccc5[nH]4)c3n2)c1: 0.27
- NC12CC(c3nnc(-c4cnn5ccc(N6CCC[C@@H]6c6cc(F)ccc6F)nc45)[nH]3)(C1)C2: 5.28
- Fc1ccc(F)c([C@H]2CCCN2c2ccn3ncc(-c4nc5cc6c(cc5[nH]4)OCCO6)c3n2)c1: 0.7
- CN1CCC(c2nnc(-c3cnn4ccc(N5CCC[C@@H]5c5cc(F)ccc5F)nc34)[nH]2)CC1: 11.7
- Fc1ccc(F)c([C@H]2CCCN2c2ccn3ncc(-c4nnc(C5CCC(F)(F)CC5)[nH]4)c3n2)c1: 3.92
- Cc1cc2[nH]c(-c3cnn4ccc(N5CCC[C@@H]5c5cc(F)ccc5F)nc34)nc2cn1: 0.76

----------
measurement-description: Liver microsomes metabolic stability assay, mouse
Type: in vitro ADME
experimental-parameters: male, mouse liver microsomes 0.5 mg/mL, 37° C., read-out: t1/2 Mouse
Please enter t where half-life at 2 μM is greater than or equal to 50 min, and f where it is lower.

• Fc1ccc(F)c([C@H]2CCCN2c2ccn3ncc(-c4nc5cc(OC(F)(F)F)ccc5[nH]4)c3n2)c1 [Compound 71] = t
• Cc1nnc(-c2cnn3ccc(N4CCCC4c4cc(F)ccc4F)nc23)[nH]1 (stereo not shown) [Comparative compound A, reference compound] = f
• Fc1ccc(F)c([C@H]2CCCN2c2ccn3ncc(-c4nnc(-c5ccc(N6CCNCC6)cc5)[nH]4)c3n2)c1 [Compound 40] = t
• Fc1ccc(F)c([C@H]2CCCN2c2ccn3ncc(-c4nc5cc6c(cc5[nH]4)OC(F)(F)O6)c3n2)c1 [Compound 79] = t
• CNC(=O)c1cc2nc(-c3cnn4ccc(N5CCC[C@@H]5c5cc(F)ccc5F)nc34)[nH]c2cc1OC [Compound 160] = f
• C[C@H](O)c1nnc(-c2cnn3ccc(N4CCC[C@@H]4c4cc(F)ccc4F)nc23)[nH]1 [Compound 4] = f
• C[C@@](O)(c1nnc(-c2cnn3ccc(N4CCC[C@@H]4c4cc(F)ccc4F)nc23)[nH]1)C(F)(F)F [Compound 26] = t

----------
target-or-system: NTRK1-G595R (Homo sapiens, UniProt P04629, G595R)
Sequence (P04629 33-796 G595R): as the sequence (P04629 33-796) above, with G563R counted along it
measurement-description: NTRK1-G595R cell proliferation assay (Table 13)
property-name: IC50 (nM)

* C[S+]([O-])c1cc2nc(-c3cnn4ccc(N5CCC[C@@H]5c5cc(F)ccc5F)nc34)[nH]c2cc1C#N (stereo partly shown) | 216
* N#Cc1cc2nc(-c3cnn4ccc(N5CCC[C@@H]5c5cc(F)ccc5F)nc34)[nH]c2cc1OC(F)F | 183
* COCCOc1cc2[nH]c(-c3cnn4ccc(N5CCC[C@@H]5c5cc(F)ccc5F)nc34)nc2cc1C#N | 103
* CNC(=O)c1cc2nc(-c3cnn4ccc(N5CCC[C@@H]5c5cc(F)ccc5F)nc34)[nH]c2cc1OC | 15.6
* OCc1cc2nc(-c3cnn4ccc(N5CCC[C@@H]5c5cc(F)ccc5F)nc34)oc2cc1F | 62.9
* CS(=O)(=O)c1cc2nc(-c3cnn4ccc(N5CCC[C@@H]5c5cc(F)ccc5F)nc34)[nH]c2cc1C#N | 257
* N#Cc1cc2nc(-c3cnn4ccc(N5CCC[C@@H]5c5cc(F)ccc5F)nc34)[nH]c2cc1C#N | 81.8

----------
Property: IC50; scope: individual compounds
target-or-system: TrkA kinase (Homo sapiens, UniProt P04629)
measurement-description: TrkA kinase assay (mobility shift assay)
Format: biochemical
experimental-parameters: class symbols; read-out: Trk A Kinase IC50
Procedure: Example 201 TrkA Kinase Assay Mobility shift assay was used to determine the inhibitory activity of compounds against TrkA kinase. Assay procedures are as follows: 1× Kinase base buffer (50 mM HEPES, pH 7.5; 0.0015% Brij-35) Stop buffer (100 mM HEPES, pH 7.5; 0.015% Brij-35; 0.2% Coating Reagent #3; 50 mM EDTA) 1) Dilute the compound to 50× of the final desired highest inhibitor concentration in reaction by 100% DMSO. Transfer 100 μl of this compound dilution to a well in a 96-well plate. […]
property-name: IC50

* Fc1ccc(F)c([C@H]2CCCN2c2ccn3ncc(-c4nnc(-c5ccnc(N6CCOCC6)c5)[nH]4)c3n2)c1 | ≤ 10 nM
* CC(O)c1ccc2nc(-c3cnn4ccc(N5CCC[C@@H]5c5cc(F)ccc5F)nc34)oc2c1 (stereo partly shown) | ≤ 10 nM
* Cn1c(-c2cnn3ccc(N4CCC[C@@H]4c4cc(F)ccc4F)nc23)nc2cnccc21 | 10 to 50 nM
* CN(C)CCN(C)c1cc2[nH]c(-c3cnn4ccc(N5CCC[C@@H]5c5cc(F)ccc5F)nc34)nc2cc1C#N | ≤ 10 nM
* Fc1ccc(F)c([C@H]2CCCN2c2ccn3ncc(-c4nc5c(s4)CNCC5)c3n2)c1 | ≤ 10 nM
* Fc1ccc(F)c([C@H]2CCCN2c2ccn3ncc(-c4nnc(-c5ccc(C(F)(F)F)nc5)[nH]4)c3n2)c1 | > 50 nM
* O=C1NCCNc2cc3[nH]c(-c4cnn5ccc(N6CCC[C@@H]6c6cc(F)ccc6F)nc45)nc3cc21 | ≤ 10 nM
